B1: library; a variant is named by its letters at N, in order (parent)
chain: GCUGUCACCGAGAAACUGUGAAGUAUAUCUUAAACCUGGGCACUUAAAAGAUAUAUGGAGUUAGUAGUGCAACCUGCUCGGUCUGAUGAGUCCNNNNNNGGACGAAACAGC

Variants of: B1
Experiment: FACS-Seq fitted mean relative fluorescence mCherry/BFP with ligand (log10 relative fluorescence); HEK293T; ligand: cyclic di-GMP (c-di-GMP-II aptamer); ligand concentration (+) FACS-Seq: 1 mM; higher = higher reporter protein expression
Conditions: ligand present: yes
Catalogue of FACS-Seq fitted mean (log10) values
# answer = number (no unit)

# annotated cases, reported FACS-Seq fitted mean (log10) shown
CAAACA	-0.439
CGAACA	-0.276
GCGCUC	0.324
AGUGUC	0.0884
CCUACC	-0.577

Request: I would be grateful if you could share the reported FACS-Seq fitted mean (log10) for CAUGGA .
Result: -0.00583

Request: I would be grateful if you could share the reported FACS-Seq fitted mean (log10) for AAAGAC .
Result: 0.33

Request: I would be grateful if you could share the reported FACS-Seq fitted mean (log10) for CAAUAU .
Result: -0.365

Request: I would be grateful if you could share the reported FACS-Seq fitted mean (log10) for CGCCUA .
Result: -0.414

Request: I would be grateful if you could share the reported FACS-Seq fitted mean (log10) for GUUUGG .
Result: -0.249

Value source: the supplement of paper PMC6757056
